# test_details: Drug level in human serum at 100 mg/kg, iv measured after 3 to 4 hrs
# Format: ADME, organism-based
# condition_summary: in vivo
measurement_kind: Drug uptake (mg/mL)
Your answer is read as mg/mL, so omit the unit and give the number.

Prompt: Any idea what Drug uptake was measured for NCCCCCC(=O)O ?
Response: 0.035

----------
# test_details: Half life in human
# Assay type: ADME
measurement_kind: half-life

Prompt: Requested read-out: half-life. Entry: NCCCCCC(=O)O
Response: 1.33 h

----------
# subject_of_test: Tissue-type plasminogen activator (Homo sapiens)
# Sequence (P00750 whole entry): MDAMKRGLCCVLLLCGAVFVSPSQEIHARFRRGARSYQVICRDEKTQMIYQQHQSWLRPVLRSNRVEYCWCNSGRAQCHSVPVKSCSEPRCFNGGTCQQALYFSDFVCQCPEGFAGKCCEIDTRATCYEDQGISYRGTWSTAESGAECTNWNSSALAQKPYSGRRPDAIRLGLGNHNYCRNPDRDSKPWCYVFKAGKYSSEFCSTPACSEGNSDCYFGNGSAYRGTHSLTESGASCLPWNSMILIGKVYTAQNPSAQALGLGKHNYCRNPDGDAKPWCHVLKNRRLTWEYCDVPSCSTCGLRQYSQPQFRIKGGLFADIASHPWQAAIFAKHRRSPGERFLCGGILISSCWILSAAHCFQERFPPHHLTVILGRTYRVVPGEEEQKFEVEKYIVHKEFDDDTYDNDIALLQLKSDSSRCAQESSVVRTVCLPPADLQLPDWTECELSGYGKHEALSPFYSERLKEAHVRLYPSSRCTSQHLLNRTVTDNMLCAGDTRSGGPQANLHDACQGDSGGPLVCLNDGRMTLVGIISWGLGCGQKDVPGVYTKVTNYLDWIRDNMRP
# test_details: Inhibition of tissue-type plasminogen activator (unknown origin)
measurement_kind: pKi
Lab note — pKi values are minus log10 of concentrations in M.

Prompt: Request: pKi, test system Tissue-type plasminogen activator (Homo sapiens), entry N=C(N)c1ccc(CNC(=O)[C@@H]2CCN2C(=O)[C@H](NCC(=O)O)C2CCCCC2)cc1
Response: 6.05

----------
# System: Plasma
# test_details: Anti-fibrinolytic activity in 5% human plasma in presence of fibrinogen by spectrophotometric method
# Type: functional, cell-free
Some compounds, each annotated with its measured pIC50.
To interpret pIC50, take it as minus log10 of a concentration measured in moles per litre.

CC(C)(C)NC(=O)Nc1cccc2nn3c(C4CCNCC4)cc(=O)[nH]c3c12    8.04
O=C(NCc1ccco1)Nc1cccc2nn3c(C4CCNCC4)cc(=O)[nH]c3c12    7.07

Prompt: Please give the measured pIC50 for this compound: O=c1cc(C2CCNCC2)n2nc3ccc(F)c(-c4ccccc4)c3c2[nH]1
Response: 7.96

----------
# subject_of_test: Coagulation factor X (Homo sapiens, UniProt P00742)
# Sequence (P00742 41-179 limits assumed): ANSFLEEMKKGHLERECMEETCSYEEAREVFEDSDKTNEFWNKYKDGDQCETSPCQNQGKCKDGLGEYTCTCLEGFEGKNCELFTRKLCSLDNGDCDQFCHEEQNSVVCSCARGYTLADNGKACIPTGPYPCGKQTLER
# Sequence (P00742 235-488 limits assumed): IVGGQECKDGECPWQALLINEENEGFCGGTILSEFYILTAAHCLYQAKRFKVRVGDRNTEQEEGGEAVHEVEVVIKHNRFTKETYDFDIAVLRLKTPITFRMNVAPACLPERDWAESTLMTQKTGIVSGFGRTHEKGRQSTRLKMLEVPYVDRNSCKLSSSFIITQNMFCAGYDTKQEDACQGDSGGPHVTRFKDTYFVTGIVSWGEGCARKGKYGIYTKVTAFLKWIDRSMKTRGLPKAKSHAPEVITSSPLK
measurement_kind: Ki

Prompt: Report Ki for N=C(N)c1ccc(CNC(=O)[C@H](CCC2CCNCC2)NC(=O)[C@@H](CCCc2ccccc2)NS(=O)(=O)Cc2ccccc2)cc1 please.
Response: > 0.13 µM

----------
# subject_of_test: Plasminogen (Homo sapiens)
# test_details: Inhibition of human plasmin using tosyl-Gly-Pro-Lys-pNA as substrate after 10 mins by UV/Vis photometry
Listing of recorded Ki by entry.
Please state the number and follow it with the unit.

N=C(N)c1ccc(CNC(=O)[C@H](Cc2cccc(CN)c2)NC(=O)[C@@H](Cc2ccc3ccccc3c2)NS(=O)(=O)Cc2ccccc2)cc1    1.1 nM

Consider the additional compound presented here.
Prompt: Dear colleague, I am looking for the recorded Ki of the following compound: N=C(N)c1ccc(CNC(=O)[C@H](CCc2ccncc2)NC(=O)[C@@H](CCCc2ccccc2)NS(=O)(=O)Cc2ccccc2)cc1
Response: 0.48 nM

----------
# subject_of_test: Prothrombin (Homo sapiens, UniProt P00734)
pKi: −log10 of the molar value.
measurement_kind: pKi

Prompt: What reported pKi corresponds to N=C(N)c1ccc(CNC(=O)[C@H](CCC2CCNCC2)NC(=O)[C@@H](CCC2CCN(C(=O)C3CC3)CC2)NS(=O)(=O)Cc2ccccc2)cc1 on Prothrombin (Homo sapiens, UniProt P00734)?
Response: < 6.00

----------
# subject_of_test: Plasminogen (Homo sapiens, UniProt P00747)
# Sequence (P00747 97-580 limits assumed): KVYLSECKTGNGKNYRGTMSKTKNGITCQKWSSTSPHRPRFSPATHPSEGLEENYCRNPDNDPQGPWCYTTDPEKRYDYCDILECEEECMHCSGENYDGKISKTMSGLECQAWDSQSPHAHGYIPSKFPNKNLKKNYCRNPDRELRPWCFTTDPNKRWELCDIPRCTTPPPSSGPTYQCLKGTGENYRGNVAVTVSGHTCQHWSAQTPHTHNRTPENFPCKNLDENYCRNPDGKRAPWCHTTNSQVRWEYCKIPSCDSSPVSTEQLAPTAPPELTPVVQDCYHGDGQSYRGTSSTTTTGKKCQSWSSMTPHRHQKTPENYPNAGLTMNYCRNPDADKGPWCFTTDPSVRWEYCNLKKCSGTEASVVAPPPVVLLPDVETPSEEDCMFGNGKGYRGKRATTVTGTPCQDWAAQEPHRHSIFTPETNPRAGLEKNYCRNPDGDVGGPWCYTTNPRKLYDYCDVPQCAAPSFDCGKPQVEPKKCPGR
# Sequence (P00747 581-810 limits assumed): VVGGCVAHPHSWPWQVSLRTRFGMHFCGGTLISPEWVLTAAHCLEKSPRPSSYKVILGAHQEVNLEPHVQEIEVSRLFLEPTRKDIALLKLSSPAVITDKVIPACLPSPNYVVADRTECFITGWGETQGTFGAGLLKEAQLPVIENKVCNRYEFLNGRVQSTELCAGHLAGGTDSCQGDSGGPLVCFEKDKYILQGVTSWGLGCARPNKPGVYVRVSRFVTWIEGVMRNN
# test_details: Inhibition of plasmin (unknown origin) assessed as reduction in amidolytic activity using S-2251 as the substrate after 4 mins
Measured IC50 by item
Don't forget the unit after the number, please.

Check out these entries, answers already filled in.
NCCCC[C@H](NC(=O)[C@H]1CC[C@H](CN)CC1)C(=O)Nc1ccc(C(=O)c2ccccc2)cc1    15 µM
CC[C@@H](C)[C@@H](N)C(=O)N[C@@H](Cc1ccccc1)C(=O)N[C@@H](CCCCN)C(=O)Nc1ccc(C(=O)c2ccccc2)cc1    69 µM
NC[C@H]1CC[C@H](C(=O)N[C@@H](CCCCNC(=O)OCc2ccccc2)C(=O)COc2ccc(C(=O)c3ccccc3)cc2)CC1    200 µM
NCCCC[C@H](NC(=O)[C@H]1CC[C@H](CN)CC1)C(=O)NCOc1ccc(C(=O)c2ccccc2)cc1    660 µM

Prompt: IC50 for NCCCCCC(=O)N[C@@H](CCCCN)C(=O)Nc1ccc(C(=O)c2ccccc2)cc1 ?
Response: 12 µM

Hello, the source for this data is ChEMBL document CHEMBL4354815, in case you need it.
